molecular target: 20S proteasome extracted from rat liver (CT-L) (Rattus norvegicus, UniProt P18421+P28075); construct: 20S proteasome extracted from rat liver; from tissue; host or cells: rat liver; experiment: inhibition of 20S proteasome, CT-L activity (fluorescent peptide); type: biochemical; details: 20 μM; rat liver 20S proteasome, 37° C., 1 h; read-out: inhibition rates (%) CT-L
Kindly supply the reported inhibition at 20 µM values for the records listed here.
Answers are plain numbers, in %.

CC(C)C[C@H](NC(=O)N[C@@H](Cc1ccccc1)C(=O)N[C@@H](CC(C)C)C(=O)Nc1cnccn1)B1OC(C)(C)C(C)(C)O1 ... 95.4
COc1ccc(OC)c(CNC(=O)N[C@@H](Cc2ccccc2)C(=O)N[C@@H](CC(C)C)B(O)O)c1 ... 98.3
CC(C)C[C@H](NC(=O)CNC(=O)Nc1cccc(OCc2ccccc2)c1)B(O)O ... 95.6
CC(C)C[C@H](NC(=O)N[C@@H](Cc1ccccc1)C(=O)Nc1cccc(OCc2ccccc2)c1)B1OC2C[C@H]3C[C@H](C3(C)C)[C@@]2(C)O1 (stereo partly shown) ... -3.13
CC(C)C[C@H](NC(=O)CNC(=O)Nc1cc(Cl)ccc1Cl)B(O)O ... 93.3

Give one value of inhibition at 20 µM per listed compound.
1. CC(C)C[C@H](NC(=O)N[C@@H](Cc1ccccc1)C(=O)Nc1cnccn1)B(O)O
2. CC(C)C[C@H](NC(=O)[C@H](Cc1ccccc1)NC(=O)Nc1cccc(OCc2ccccc2)c1)B(O)O
3. CC(C)C[C@H](NC(=O)[C@H](Cc1ccccc1)NC(=O)Nc1cnccn1)B(O)O
4. COc1ccc(OC)c(CNC(=O)N[C@@H](Cc2ccccc2)C(=O)N[C@@H](CC(C)C)B2OC3CC4CC(C4(C)C)[C@]3(C)O2)c1 (stereo partly shown)
5. CC(C)C[C@H](NC(=O)N[C@@H](Cc1ccccc1)C(=O)N[C@@H](CC(C)C)C(=O)Nc1cnccn1)B(O)O
6. CC(C)C[C@H](NC(=O)N[C@@H](Cc1ccccc1)C(=O)Nc1cnccn1)B1OC2C[C@H]3C[C@H](C3(C)C)[C@@]2(C)O1 (stereo partly shown)
7. CC(C)C[C@H](NC(=O)[C@H](Cc1ccccc1)NC(=O)N[C@@H](Cc1ccccc1)C(=O)Nc1cnccn1)B(O)O
8. COc1ccc(NC(=O)[C@H](Cc2ccccc2)NC(=O)N[C@@H](CC(C)C)B(O)O)cc1

Reply:
1: 86.8; 2: 94.5; 3: 95.8; 4: 98.3; 5: 95.8; 6: 82.6; 7: 97.4; 8: 89.4
